For each record, write down the corresponding koff.
Target: T1, cynomolgus monkey EL-C2 tag (cynomolgus monkey, UniProt Q9Y5X9 21-500 (human entry), limits assumed)
T1 construct: used as heparin extract of transfected HEK293F cells; also called cynomolgus EL
T1 chain: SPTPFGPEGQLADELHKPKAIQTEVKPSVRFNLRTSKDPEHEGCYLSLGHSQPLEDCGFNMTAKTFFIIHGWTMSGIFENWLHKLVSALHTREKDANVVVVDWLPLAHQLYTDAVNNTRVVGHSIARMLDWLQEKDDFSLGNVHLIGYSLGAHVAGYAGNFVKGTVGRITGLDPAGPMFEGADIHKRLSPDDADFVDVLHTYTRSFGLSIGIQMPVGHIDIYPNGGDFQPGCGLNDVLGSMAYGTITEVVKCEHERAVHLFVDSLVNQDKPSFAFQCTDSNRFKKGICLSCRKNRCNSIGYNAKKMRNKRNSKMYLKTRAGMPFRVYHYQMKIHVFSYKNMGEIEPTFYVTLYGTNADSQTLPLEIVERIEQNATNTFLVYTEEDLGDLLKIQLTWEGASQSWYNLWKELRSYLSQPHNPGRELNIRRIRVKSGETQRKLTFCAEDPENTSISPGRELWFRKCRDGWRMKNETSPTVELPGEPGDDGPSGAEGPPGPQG
Assay: Biacore SPR; EL heparin extract captured by anti-C2-tag antibody on CM5, antibody as analyte, bivalent fit

Worked examples follow.
>  <BINDER>
3B1 antibody (antibody, IgG1, V domains shown) VH: QVTLKESGPGILQPSQTLSLTCSFSGFSLSTSGVGVGWIRQPSGKGLEWLAHIWWNDNKYYNTALKSRLTISKDTSNNQVFLKIASVDTADTATYFCARSYDGYPFDYWGQGTLVTVSA VL: DIQMTQSPSSLSASLGGKVTITCKASQDINKYIVWYQHKPGKGPRLLIHHTSTLQPGIPSRFSESGSGRDYSFSISNLEPEDIASYYCLQYDTLLWTFGGGTKLEIR

>  <VALUE_OBSERVED>
9.9e-05 s⁻¹

$$$$
>  <BINDER>
16A11 antibody (antibody, IgG1, V domains shown) VH: QVTLKESGPGILQPSQTLSLTCSFSGFSLSTSGMGVGWVRQPSGKGLEWLAHIWWNDYYYYKTALKSRLTISKDTSNNQVFLKIASVDTVDTATYYCARMAPGTPFPSWGQGTLVTVSA VL: DIQMTQSPSSLSASLGGKVTITCKASQDINRYIAWYQHKPGKGPRLLIHYTSTLQPGIPSRFSGSGSGRDYSFSISNLEPEDIATYYCLQYDILLWTFGGGTKLEIK

>  <VALUE_OBSERVED>
0.00039 s⁻¹

$$$$
>  <BINDER>
25E4 antibody (antibody, IgG2b, V domains shown) VH: QVALKESGPGILQPSQTLSLTCSFSGFSLSTSGMGVGWIRQPSGKGLEWLAHIWWHGNKYYSTALKSRLTISKDTSNNQVFLKIASVDTADTATYYCARISDGYPLDYWGQGTSVTVSS VL: DIQMTQSPSSLSASLGGKVTITCKASQDINKYIVWYQQKPGKGPRLLIHYTSTLQPGFPSRFSGSGSGRDYSLSITNLEPEDIATYYCLQYDNLLWTFGGGTKLEIK

>  <VALUE_OBSERVED>
9.4e-05 s⁻¹

$$$$

Could you now consider this next binder?
Query block: Need koff of 41H8 antibody (antibody, IgG1, V domains shown) VH: QVTLKESGPGILQPSQTLSLTCSFSGFSLSTYGMGVGWIRQPSGKGLEWLAHIWWNENKYYNTDLKSRLTISKDTSNNQVFLKIASVDTADTATYYCARIGPGVPFDYWGQGTTITVSS VL: DIQMTQSPSSLSASLGGKVTITCKASQDINKFIAWYQHKPGKGPRLLIHYTSTLQPGIPSRFNGSGSGRDYSFTISNLEPEDIATYYCLQYDILTWTFGGGTKLEIK , thanks.
Result block: 0.0001 s⁻¹
